The origin of these recorded values is patent US6348477B1.

Tested on: HCMV (strain AD169)
Procedure Text: Inhibition of HCMV replication, ELISA assay (Hs-68 cells, p28)
Format: cell-based, human cytomegalovirus
Study Conditions: Group 1 Table 1; read-out: ELISA CMV EC50
Readout Type: EC50

1) CC(c1ccccc1)N(CC(=O)Nc1ccc(-c2csc(N)n2)cc1)C(=O)C1CCCCC1 (centres unmarked) [Example 53]	3200 nM
2) Nc1nc(-c2ccc(NC(=O)CN(CC3CCCCC3)C(=O)c3cccnc3)cc2)cs1	750 nM
3) CC(c1ccccc1)N(CC(=O)Nc1ccc(-c2csc(N)n2)cc1)C(=O)OC(C)(C)C (centres unmarked) [Example 89]	900 nM
4) CC(c1ccccc1)N(CC(=O)Nc1ccc(-c2csc(N)n2)cc1)C(=O)OC(C)(C)C (centres unmarked) [Example 88]	> 47000 nM

Input: Can you look up EC50 on HCMV (strain AD169) for CC(c1ccccc1)N(CC(=O)Nc1ccc(-c2csc(N)n2)cc1)C(=O)C1CCCCC1 (centres unmarked) [Example 52] ?
Output: 1300 nM
